# System: mSTC-1
# ASSAY_NAME: mSTC-1 GLP-1 secretion
# Format: cell-based
# CONDITION_NOTES: 2 μM, single point, read-out: Primary SP mSTC (% Stim.)
Reported activation at 2 µM by item:
QUANTITY_NAME: activation at 2 µM (%)

COMPOUND	SCALE_UNIT	ASSAY_RESULT
CC1(C)C(=O)C[C@]23CCCC[C@]12N(Cc1ccccc1)c1ccccc13	%	78.5
O=C1C2CCC1[C@@]1(CCO)c3ccccc3N(Cc3ccccc3)[C@@H]21 (some centres unmarked)	%	-3.3
CC1(C)C(=O)C[C@]23CCCC[C@]12Nc1ccccc13	%	-4.1
Cc1ccc(C2CC(C)(C)c3c2[nH]c2ccccc32)cc1 (centres unmarked) [Compound 19h]	%	93.2
Cc1ccc(C2CC3(CCCCC3)c3c2[nH]c2ccc(C)cc32)cc1 (centres unmarked) [Compound 19g]	%	34.9

---

Property: activation at 2 µM; scope: individual molecules
# Tested on: mSTC-1
# ASSAY_NAME: mSTC-1 GLP-1 secretion
# Assay type: cell-based
# CONDITION_NOTES: 2 μM, single point, read-out: Primary SP mSTC (% Stim.)
# Method: In light of the above results, additional compounds (Table 7) were prepared and phenotypic assays were carried out using hNCI-H716 and mSTC-1 cell lines to monitor GLP-1 secretion (single point (SP) and concentration response curves (CRC)) (Table 8), as well as a secondary assay with pituitary cells (Table 9).

MOLECULE	activation at 2 µM / %
CC(=O)Oc1ccc(C2CC3(CCCCC3)c3c2[nH]c2ccccc32)cc1 (centres unmarked) [Compound 19i]	13.5
c1ccc(C2CC3(CCCCC3)c3c2[nH]c2ccccc32)cc1 (centres unmarked) [Compound 19e]	78.4
O=C1C2CCC1[C@@]1(CCO)c3ccccc3N[C@@H]21 (some centres unmarked) [Compound 21]	-1
C[C@]12c3ccccc3N[C@H]1C1CCC2C1=O (some centres unmarked) [Compound 22]	-1.8
COC(=O)[C@@H]1CC[C@H](O)[C@@]2(C)c3ccccc3N(C)[C@@H]12 [Compound 26]	-2.4

---

# Test system: mSTC-1
# ASSAY_NAME: mSTC-1 GLP-1 secretion
# Assay type: cell-based
# CONDITION_NOTES: 2 μM, single point, read-out: Primary SP mSTC (% Stim.)
// label = met if activation at 2 µM is not less than 10%, otherwise not met

COMPOUND	LABEL_VALUE
O=C1OC2CCC1[C@]13CCO[C@]21Nc1ccccc13 (some centres unmarked) [Compound 28]	not met
O=C1OC2CCC1[C@]13CCN[C@]21Nc1ccccc13 (some centres unmarked) [Compound 27]	not met
CN1c2ccccc2[C@]2(C)C3CCC(C3=O)[C@H]12 (some centres unmarked) [Compound 23]	not met
CC1(C)C(=O)C[C@@]2(C)c3ccccc3N(Cc3ccccc3)[C@@]12C [Compound 30]	met
Cc1ccc(C2CC(C)(C)c3c2[nH]c2ccc(C)cc32)cc1 (centres unmarked) [Compound 19d]	met

---

# System: hNCI-H716
# ASSAY_NAME: hNCI-H716 GLP-1 secretion
# Format: cell-based
# CONDITION_NOTES: 20 μM; GLP-1 secretion, single point

MOLECULE	Primary SP hNCI (% Stim.) (%)
CC1(C)c2c([nH]c3ccc(I)cc23)C2C=CC1C2 (stereo not drawn) [Compound 11u]	57
COC(=O)c1ccc2[nH]c3c(c2c1)C(C)(C)C1C=CC3C1 (stereo not drawn) [Compound 11r]	13.4
COc1ccc2[nH]c3c(c2c1)C(C)(C)C1C=CC3C1 (stereo not drawn) [Compound 11q]	5.9
Cn1c2c(c3ccccc31)[C@@H](c1ccc(C(F)(F)F)cc1)[C@@H]1C=C[C@H]2C1 (racemic) [Compound 11c]	0.7
COc1ccc([C@@H]2c3c(n(C)c4ccccc34)[C@H]3C=C[C@@H]2C3)cc1 (racemic) [Compound 11b]	−2.4
CC1(C)c2c([nH]c3ccccc23)C2C=CC1C2 (stereo not drawn) [Compound 11p]	23.3
